- Test system: PC-3
- Assay Remarks: Cytotoxicity against human PC-3 cells incubated for 96 hrs by MTT assay
- Type: functional, cell-based
- Measurement Conditions: PC-3, 96 h
I'd be grateful if you could share measured pIC50 for these entries.
Answers are plain numbers, as −log10 of the molar value.

CCCCCCCCCCCCCC(=O)N[C@@H](CO)[C@H](O)c1ccc([N+](=O)[O-])cc1
4.08

Ask | Kindly state the measured pIC50 obtained for CCCCCCCCCCCCNC(=O)N[C@@H](CO)[C@H](O)c1ccc([N+](=O)[O-])cc1 with PC-3.
Reply | 4.44

###

I'd be grateful if you could share measured IC50 for these entries.
- Assay System: Human immunodeficiency virus type 1 protease (Human immunodeficiency virus 1)
- Assay Remarks: Inhibition of HIV1 protease

O=C(N[C@@H](Cc1ccccc1)[C@@H](O)C[C@@H](Cc1ccccc1)C(=O)N[C@H]1c2ccccc2C[C@H]1O)O[C@H]1CCOC1
< 0.03 nM

Shifting focus to the molecule that follows.
Ask | Query: IC50; subject: CC(C)(C)NC(=O)[C@@H]1C[C@@H]2CCCC[C@@H]2CN1C[C@@H](O)[C@H](Cc1ccccc1)NC(=O)OC(C)(C)C
Reply | ≥ 3000 nM

Provenance of the data: ChEMBL document CHEMBL4732045
